target: T1, BSA (Sigma), biotinylated (UniProt P02769 25-607); assay: protein-DNA complex captured on biotinylated protein in streptavidin-coated PCR tubes; co-captured DNA detected by PCR and gel
T1 construct: Negative control surface
T1 sequence (P02769 25-607 limits assumed): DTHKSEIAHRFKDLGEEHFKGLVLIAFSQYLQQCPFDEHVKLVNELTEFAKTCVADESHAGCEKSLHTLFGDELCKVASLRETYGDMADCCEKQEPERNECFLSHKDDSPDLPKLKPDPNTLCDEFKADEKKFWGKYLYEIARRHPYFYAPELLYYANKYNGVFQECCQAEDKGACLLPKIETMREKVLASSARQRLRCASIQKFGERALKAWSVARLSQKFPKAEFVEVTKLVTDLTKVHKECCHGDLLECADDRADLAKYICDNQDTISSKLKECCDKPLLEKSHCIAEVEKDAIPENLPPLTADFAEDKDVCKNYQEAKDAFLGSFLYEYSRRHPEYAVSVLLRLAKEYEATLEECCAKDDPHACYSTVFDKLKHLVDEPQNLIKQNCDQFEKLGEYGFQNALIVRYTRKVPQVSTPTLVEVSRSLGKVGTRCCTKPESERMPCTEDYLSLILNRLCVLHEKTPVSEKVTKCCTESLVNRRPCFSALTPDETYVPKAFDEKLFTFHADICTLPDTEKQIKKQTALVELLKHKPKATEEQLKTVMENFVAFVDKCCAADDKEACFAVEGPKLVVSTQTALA
ENDPOINT: binding result

VH(DOM1h-10-27)-scArc fusion protein (pIE2aAVH(DOM1h-10-27)) (other, Human heavy chain VH domain antibody against human TNF receptor fused to scArc; in vitro translated, assayed as protein-DNA complex (one Arc operator), with the stabilising 3F10 mAb; also called VH(DOM1h-10-27) domain antibody fusion construct with scArc) MAEVQLLESGGGLVQPGGSLRLSCAASGFTFEWYWMGWVRQAPGKGLEWVSAISGSGGSTYYADSVKGRFTISRDNSKNTLYLQMNSLRAEDAAVYYCAKVKLGGGPNFGYRGQGTLVTVSSAAGGGSGGGHMKGMSKMPQFNLRWPREVLDLVRKVAEENGRSVNSEIYQRVMESFKKEGRIGAGGGSGGGSGGGSGGGHMKGMSKMPQFNLRWPREVLDLVRKVAEENGRSVNSEIYQRVMESFKKEGRIGAGGGSGGGSYPYDVPDYA : no binding
HA-tagged scArc repressor expressed from pIE2aA / pIE2a^2A-derived genetic elements (other, The same protein is encoded by pIE2A, pIE2aA and pIE2a^2A (they differ in the number of operators on the DNA); also called scArc-HA; pIE2-encoded scArc-HA) MGSTGGAAAGSGGGSGGGHMKGMSKMPQFNLRWPREVLDLVRKVAEENGRSVNSEIYQRVMESFKKEGRIGAGGGSGGGSGGGSGGGHMKGMSKMPQFNLRWPREVLDLVRKVAEENGRSVNSEIYQRVMESFKKEGRIGAGGGSGGGSYPYDVPDYA : no binding
HA-tagged scArc repressor expressed from pIE3A / pIE3aA-derived genetic elements (other, In vitro translated; differs from the pIE2 form in that the MCS-encoded region lies between scArc and the HA tag; also called pIE3-derived scArc-HA; scArc-HA) MSGSGGGSGGGHMKGMSKMPQFNLRWPREVLDLVRKVAEENGRSVNSEIYQRVMESFKKEGRIGAGGGSGGGSGGGSGGGHMKGMSKMPQFNLRWPREVLDLVRKVAEENGRSVNSEIYQRVMESFKKEGRIGAGGGSGGGSMGSTGGAAARSYPYDVPDYA : no binding
